Values compiled from the supplement of paper PMC7125110.

B1: glmS ribozyme (parent)
chain: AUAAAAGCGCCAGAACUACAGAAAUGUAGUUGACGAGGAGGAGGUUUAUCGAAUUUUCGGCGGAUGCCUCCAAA

- Variants of: B1
- ASSAY_PROTOCOL: self-cleavage kobs at 160 uM GlcN6P; higher = faster cleavage; RNA array
- TEST_CONTEXT: with glucosamine-6-phosphate
Variants at the floor of the assay were thinned out.
ASSAY_METRIC: self-cleavage kobs at 160 uM GlcN6P (s⁻¹)
The response must be a number in s⁻¹ with no trailing unit.

Check out these entries, answers already filled in.
{"RESIDUE_SEQUENCE": "AUAAAAGCGCCAGAACUACAGAAAUGUAGUUGACGAGGAGGAGGUUUAUAGAAUUUUCGGCGGAUGUUUCCAAA", "ASSAY_METRIC": "self-cleavage kobs at 160 uM GlcN6P", "UNITS_SYMBOL": "s⁻¹", "REPORTED_RESULT": "6.13e-05"}
{"RESIDUE_SEQUENCE": "AUAAAAGCGCCGGAACUACAGAAAUGUAGUUGACGAGGAGGAGGUUUAUCGAAUCUUCGGCGGAUGCCUCCAAA", "ASSAY_METRIC": "self-cleavage kobs at 160 uM GlcN6P", "UNITS_SYMBOL": "s⁻¹", "REPORTED_RESULT": "4.44e-05"}
{"RESIDUE_SEQUENCE": "AUAAAAGCGCCAGAACUACAGAAAUGUAGUUGACGAGGAGGGGGAUUAUCGAAUUUUCGGCGGAUGCCUCCAAA", "ASSAY_METRIC": "self-cleavage kobs at 160 uM GlcN6P", "UNITS_SYMBOL": "s⁻¹", "REPORTED_RESULT": 0.00634}
{"RESIDUE_SEQUENCE": "AUAAAAGCGCCAGAACUACAGAAAUGUAGUAGACGAGGAGGAGGUUUAUCGAAUUUUCGGCGGAUGCCGCCAAA", "ASSAY_METRIC": "self-cleavage kobs at 160 uM GlcN6P", "UNITS_SYMBOL": "s⁻¹", "REPORTED_RESULT": "4.7e-05"}
{"RESIDUE_SEQUENCE": "AUAAAAGCGCCAGAACUACAGAAAUGUAGUUGACGAAGUGGAGGUUUAUCGAAUUUUCGGCGGAUGCCUCCAAA", "ASSAY_METRIC": "self-cleavage kobs at 160 uM GlcN6P", "UNITS_SYMBOL": "s⁻¹", "REPORTED_RESULT": "6.13e-05"}
{"RESIDUE_SEQUENCE": "AUAAAAGCGCUAGAACUACAGAAAUGUAGUUGACGAGGAGGAGGUUUAUCGAAUUUUCGGCGGAUGCCUCAAAA", "ASSAY_METRIC": "self-cleavage kobs at 160 uM GlcN6P", "UNITS_SYMBOL": "s⁻¹", "REPORTED_RESULT": "4.15e-05"}

Ask: # input variant: `AUAAAAGCGCCAGAACUACAGAAAUGUAGUUGACGAGGUGGAGGUGUAUCGAAUUUUCGGCGGAUGCCUCCAAA` ; wanted: its self-cleavage kobs at 160 uM GlcN6P
Reply: 0.000227

Ask: Field request: self-cleavage kobs at 160 uM GlcN6P | item: `AUAAAAGCGCCAGAACUACAGAAAUGUAGUUGACGAGGAUGAGGUUAAUCGAAUUUUCGGCGGAUGCCUCCAAA`
Reply: 0.000114

Ask: Requested field: self-cleavage kobs at 160 uM GlcN6P. Item: `AUAAAAGCGCCAGAACUACAGAAAUGUACUUGACGAGGGGGAGGUUUAUCGAAUUUUCGGCGGAUGCCUCCAAA`
Reply: 0.000305

Ask: I would be grateful if you could share the reported self-cleavage kobs at 160 uM GlcN6P for `AUAAAAGCGCCAGAAGUACAGAAAUGUAGUUGACGAGGAGGAGGUUUAUCGAAUUAUCGGCGGAUGCCUCCAAA` .
Reply: 0.000189

Ask: self-cleavage kobs at 160 uM GlcN6P lookup needed for `AUAAAAGCGCCAGAACUACAGAAAUGUAGUUGACGAGGAGGAGGUUUAUCGAGUUUUCGGCGGAUGCCCCCAAA` , thanks.
Reply: 0.000469

Ask: Name the recorded self-cleavage kobs at 160 uM GlcN6P for `AUAAAAGCGCCAGAACUACAGAAAUGUAGUUGACGAGGAGGAGGUGAAUCGAAUUUUCGGCGGAUGCCUCCAAA` .
Reply: 0.00128

Ask: Could you tell me which self-cleavage kobs at 160 uM GlcN6P is on file for `AUAAAAGCGCCAGAGCUACAGAAAUGUAGUUGACGAGGAGGAGGUUUAUCGAAUGUUCGGCGGAUGCCUACAAA` ?
Reply: 7.19e-05

Ask: GET /values?readout=self-cleavage kobs at 160 uM GlcN6P&item= `CUAAAAGCGCCAGAACUACAGAAAUGUAGGUGACGAGGAGGAGGUUUAUCGAAUUUUCGGCGGAUGCCUCCAAA`
Reply: 0.000834

Ask: Give the measured self-cleavage kobs at 160 uM GlcN6P of `AUAAAAGCGCCAGGACUACAGAAAUGUAGUUGACGAGGAGGAGGGUUAUCGAAUUUUCGGCGGAUGCCUCCAAA` .
Reply: 0.000908

Ask: Give the measured self-cleavage kobs at 160 uM GlcN6P of `AUAAAAGCGCCAGAACUACAGAAAUGUAGUUGACGAGGAGGAGGUAUAUCGAUUUUUCGGCGGAUGCCUCCAAA` .
Reply: 0.000161

Ask: Record request: self-cleavage kobs at 160 uM GlcN6P value, item `AUAAAAGCGCCAGAACUACAGAAAUGUAGUUUACGAGGAGGAGGUUUAUCGAAUUUUAGGCGGAUGCCUCCAAA`
Reply: 6.77e-05

Ask: Which value of self-cleavage kobs at 160 uM GlcN6P has been reported for `AUAAAAGCGCCUGAACUACAGAAAUGUAGUUGACGAGGAGGAGGUUUAUCGAAUUUUCGGCGGAUGCCGACAAA` in the records?
Reply: 7.03e-05

Ask: Requested read-out: self-cleavage kobs at 160 uM GlcN6P. Entry: `AUAAAAGCGCCAAAACUACAGAAAUGUAGUUGACGAGGAGGAGGUUUAUCGAAUUUUCGGCGGAUGUCUCCAAA`
Reply: 2.9e-05

Ask: What does the record list as self-cleavage kobs at 160 uM GlcN6P for `AUAAAAGCGCCAGUACUACAGAAAUGUAGUUGACGAGGAGGAGGUUGAUCGAAUUUUCGGCGGAUGCCUCCAAA` ?
Reply: 0.000115

Ask: Fill in: self-cleavage kobs at 160 uM GlcN6P of `AUAAAAGCGCCAUAACUACAGAAAUGUAGUUGACGAGGAGGAGGUUUAUCGAAUUUUCGGCGGAUGCCUCCAAA` is ___
Reply: 0.000104

Ask: If you can, please state the reported self-cleavage kobs at 160 uM GlcN6P value of `AUAAAAGCGCCAGAACUACAGAAAUGUAGUUGACGAGGAGGAGGUUUAUCGAAUUUUCGGCGGAUAGCUCCAAA` .
Reply: 0.000414

Ask: Given `AUAAAAGCGCCAGAUGUACAGAAAUGUAGUUGACGAGGAGGAGGUUUAUCGAAUUUUCGGCGGAUGCCUCCAAA` , state its recorded self-cleavage kobs at 160 uM GlcN6P.
Reply: 8.8e-05
